# credit: ChEMBL document CHEMBL4622985

# Assayed Target: Metabotropic glutamate receptor 2 (Homo sapiens, UniProt Q14416)
# Sequence (Q14416 whole entry): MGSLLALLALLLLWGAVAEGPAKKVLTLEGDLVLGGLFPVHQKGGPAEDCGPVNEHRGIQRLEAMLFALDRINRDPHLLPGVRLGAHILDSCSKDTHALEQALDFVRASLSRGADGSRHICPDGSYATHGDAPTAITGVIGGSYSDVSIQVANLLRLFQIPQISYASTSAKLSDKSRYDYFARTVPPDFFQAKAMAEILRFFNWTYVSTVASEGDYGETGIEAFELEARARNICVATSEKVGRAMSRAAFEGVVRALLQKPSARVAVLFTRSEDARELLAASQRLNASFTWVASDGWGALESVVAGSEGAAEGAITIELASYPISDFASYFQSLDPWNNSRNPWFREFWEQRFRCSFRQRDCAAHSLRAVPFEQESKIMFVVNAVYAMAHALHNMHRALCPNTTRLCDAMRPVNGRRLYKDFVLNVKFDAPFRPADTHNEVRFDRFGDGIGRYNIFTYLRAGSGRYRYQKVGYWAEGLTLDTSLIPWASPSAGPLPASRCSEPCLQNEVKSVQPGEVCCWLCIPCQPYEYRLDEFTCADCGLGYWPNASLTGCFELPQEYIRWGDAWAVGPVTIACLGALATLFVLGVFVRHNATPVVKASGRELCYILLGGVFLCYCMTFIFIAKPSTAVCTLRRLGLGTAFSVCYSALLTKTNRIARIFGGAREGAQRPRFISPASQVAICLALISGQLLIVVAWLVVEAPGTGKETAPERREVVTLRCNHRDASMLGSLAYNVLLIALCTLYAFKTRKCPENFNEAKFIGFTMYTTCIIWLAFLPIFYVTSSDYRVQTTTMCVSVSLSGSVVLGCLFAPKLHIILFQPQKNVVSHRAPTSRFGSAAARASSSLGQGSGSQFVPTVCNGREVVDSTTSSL
# Method: Agonist activity at human mGlu2 receptor expressed in HEK293 cells co-expressing Gqo5 assessed as increase in intracellular Ca2+ mobilization incubated for 1 hr by Fluo-4 dye based fluorescence assay
# Assay type: functional, cell-based
# Recorded Conditions: read-out: EC50
Measurement Kind: EC50

Below: 2 compounds and their reported EC50.
> print(dat)
                               input.smiles  measurement.kind  experimental.result
1  COCCOc1cccc(C(=O)C2CCN(CCc3ccc(F)cc3)CC2)c1OC              EC50              > 50 µM
2  COc1c(OCCOCCOCCOCCOCCOCCOc2ccc(C3CCN(c4ccn5c(CC6CC6)nnc5c4Cl)CC3)cc2)cccc1C(=O)C1CCN(CCc2ccc(F)cc2)CC1              EC50               1.2 µM

Okay, next one:
Prompt: Entry "COc1cccc(C(=O)C2CCN(CCc3ccc(F)cc3)CC2)c1OC" has what EC50?
Completion: > 50 µM
